Each recorded value in this set is attributed to patent US20240217970A1.

- tested.on: IKZF2 (Helios) (Homo sapiens, UniProt Q96SW2+Q9UKS7)
- Construct: endogenous in cells; host or cells: MOLT4 (CRISPR/Cas knock-in of HiBiT at the endogenous IKZF2 locus)
- Sequence (Q9UKS7 whole entry): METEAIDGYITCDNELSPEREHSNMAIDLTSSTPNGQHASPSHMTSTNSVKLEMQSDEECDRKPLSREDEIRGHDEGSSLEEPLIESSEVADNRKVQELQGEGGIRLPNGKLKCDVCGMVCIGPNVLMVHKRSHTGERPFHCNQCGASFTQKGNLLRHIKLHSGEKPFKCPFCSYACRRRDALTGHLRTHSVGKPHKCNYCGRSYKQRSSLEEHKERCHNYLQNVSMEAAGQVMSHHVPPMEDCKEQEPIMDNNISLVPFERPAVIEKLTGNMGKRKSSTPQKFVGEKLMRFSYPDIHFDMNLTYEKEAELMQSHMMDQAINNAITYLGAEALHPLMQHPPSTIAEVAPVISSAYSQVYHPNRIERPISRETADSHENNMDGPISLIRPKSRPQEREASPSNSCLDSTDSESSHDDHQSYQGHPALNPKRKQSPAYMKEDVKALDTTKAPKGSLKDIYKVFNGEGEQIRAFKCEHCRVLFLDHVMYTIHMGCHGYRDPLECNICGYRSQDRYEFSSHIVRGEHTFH
- Sequence (Q96SW2 whole entry): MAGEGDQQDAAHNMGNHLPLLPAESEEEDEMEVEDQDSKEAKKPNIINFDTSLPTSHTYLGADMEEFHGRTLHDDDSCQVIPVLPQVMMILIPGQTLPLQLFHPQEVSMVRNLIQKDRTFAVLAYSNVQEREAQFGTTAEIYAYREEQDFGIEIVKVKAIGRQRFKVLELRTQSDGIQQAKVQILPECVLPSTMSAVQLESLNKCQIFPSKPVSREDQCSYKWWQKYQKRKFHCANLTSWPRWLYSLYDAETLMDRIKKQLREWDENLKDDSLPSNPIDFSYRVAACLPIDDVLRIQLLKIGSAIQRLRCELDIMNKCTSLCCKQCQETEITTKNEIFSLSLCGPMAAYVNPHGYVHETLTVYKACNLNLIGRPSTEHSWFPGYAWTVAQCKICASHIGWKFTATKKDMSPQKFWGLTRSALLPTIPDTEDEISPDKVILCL
- Sequence (Q16531 whole entry partner): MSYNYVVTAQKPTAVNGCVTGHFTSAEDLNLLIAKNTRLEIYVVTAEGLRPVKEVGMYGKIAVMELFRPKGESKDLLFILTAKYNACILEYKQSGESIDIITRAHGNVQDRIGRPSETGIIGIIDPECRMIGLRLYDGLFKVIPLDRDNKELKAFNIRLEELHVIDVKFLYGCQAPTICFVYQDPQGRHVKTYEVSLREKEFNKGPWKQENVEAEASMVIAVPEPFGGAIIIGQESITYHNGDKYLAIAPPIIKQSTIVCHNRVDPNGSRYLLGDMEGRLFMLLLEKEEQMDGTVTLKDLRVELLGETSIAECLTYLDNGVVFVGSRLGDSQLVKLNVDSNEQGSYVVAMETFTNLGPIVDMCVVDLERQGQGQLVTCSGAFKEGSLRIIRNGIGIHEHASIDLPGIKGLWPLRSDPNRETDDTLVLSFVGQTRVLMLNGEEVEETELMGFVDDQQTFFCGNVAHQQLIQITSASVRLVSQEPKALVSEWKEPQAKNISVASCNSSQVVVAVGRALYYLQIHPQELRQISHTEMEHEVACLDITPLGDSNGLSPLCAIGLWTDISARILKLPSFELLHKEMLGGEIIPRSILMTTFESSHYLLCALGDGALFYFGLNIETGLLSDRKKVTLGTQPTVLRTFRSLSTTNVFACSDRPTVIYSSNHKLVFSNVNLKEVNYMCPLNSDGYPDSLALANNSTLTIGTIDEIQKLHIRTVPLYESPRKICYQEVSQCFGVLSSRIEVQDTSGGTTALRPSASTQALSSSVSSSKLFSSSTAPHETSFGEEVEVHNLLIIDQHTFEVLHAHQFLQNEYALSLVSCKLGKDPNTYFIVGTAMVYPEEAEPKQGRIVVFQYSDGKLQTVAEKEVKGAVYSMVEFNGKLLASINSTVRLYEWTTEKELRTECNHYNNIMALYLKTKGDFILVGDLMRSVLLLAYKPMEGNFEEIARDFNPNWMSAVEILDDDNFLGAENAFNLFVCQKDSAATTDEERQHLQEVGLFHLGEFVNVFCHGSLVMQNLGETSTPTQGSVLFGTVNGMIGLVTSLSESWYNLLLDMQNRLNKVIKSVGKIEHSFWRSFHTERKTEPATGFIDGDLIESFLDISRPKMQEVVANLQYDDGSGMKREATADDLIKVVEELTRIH
- method.description: HiBiT-IKZF2 degradation assay in MOLT4 cells
- Type: cell-based
- setup.conditions: concentration at which 50% of HiBiT-Helios degradation was achieved, read-out: Cellular Degradation - IKZF2 DC50

{"compound": "O=C1CCC(N2C(=O)c3ccc(C4(O)CCN(Cc5ccc6cc(-c7ccccc7)nn6c5)CC4)cc3C2=O)C(=O)N1 (stereo not shown)", "DC50": "4.9 nM"}
{"compound": "O=C1CCC(N2C(=O)c3ccc(C4(O)CCN(Cc5cccc6ccccc56)CC4)cc3C2=O)C(=O)N1 (stereo not shown)", "DC50": "14 nM"}
{"compound": "N#Cc1ccc(Oc2cccc(CN3CCC(O)(c4ccc5c(c4)C(=O)N(C4CCC(=O)NC4=O)C5=O)CC3)c2)cc1 (stereo not shown)", "DC50": "4.3 nM"}
{"compound": "O=C1CCC(N2C(=O)c3ccc(C4(O)CCN(Cc5ccc(OC(F)F)cc5)CC4)cc3C2=O)C(=O)N1 (stereo not shown)", "DC50": "19 nM"}
{"compound": "COc1cccc(CN2CCC(O)(c3ccc4c(c3)C(=O)N(C3CCC(=O)NC3=O)C4=O)CC2)c1 (stereo not shown)", "DC50": "16 nM"}
{"compound": "O=C1CCC(N2C(=O)c3ccc(C4(O)CCN(Cc5ccc(F)c(Oc6ccccc6)c5)CC4)cc3C2=O)C(=O)N1 (stereo not shown)", "DC50": "23 nM"}
{"compound": "O=C1CCC(N2C(=O)c3ccc(C4(O)CCN(Cc5ccc6ccccc6c5)CC4)cc3C2=O)C(=O)N1 (stereo not shown)", "DC50": "13 nM"}
{"compound": "O=C1CCC(N2C(=O)c3ccc(C4(O)CCN(Cc5cc(F)cc(F)c5)CC4)cc3C2=O)C(=O)N1 (stereo not shown)", "DC50": "61 nM"}
{"compound": "O=C1CCC(N2C(=O)c3ccc(C4(O)CCN(Cc5cccc(Oc6ccc(F)cc6)c5)CC4)cc3C2=O)C(=O)N1 (stereo not shown)", "DC50": "7.3 nM"}
{"compound": "O=C1CCC(N2C(=O)c3ccc(C4(O)CCN(Cc5cccc(Nc6ccccn6)n5)CC4)cc3C2=O)C(=O)N1 (stereo not shown)", "DC50": "24 nM"}

----------
Item-by-item account of inhibition at 10 µM
- tested.on: IKZF2 (Helios) (Homo sapiens, UniProt Q96SW2+Q9UKS7)
- Construct: endogenous in cells; host or cells: MOLT4 (CRISPR/Cas knock-in of HiBiT at the endogenous IKZF2 locus)
- method.description: HiBiT-IKZF2 degradation assay in MOLT4 cells
- Format: cell-based
- setup.conditions: MOLT-4, 10 μM
property.label: inhibition at 10 µM (%)

{"compound": "N#Cc1ccc(Oc2cccc(CN3CCC(O)(c4ccc5c(c4)C(=O)N(C4CCC(=O)NC4=O)C5=O)CC3)c2)cc1 (stereo not drawn)", "property.label": "inhibition at 10 µM", "assay.result": 77}
{"compound": "O=C1CCC(N2C(=O)c3ccc(C4(O)CCN(Cc5cccc(Oc6ccccc6)c5)CC4)cc3C2=O)C(=O)N1 (stereo not drawn)", "property.label": "inhibition at 10 µM", "assay.result": 76}
{"compound": "O=C1CCC(N2C(=O)c3ccc(C4(O)CCN(Cc5cc(F)cc(F)c5)CC4)cc3C2=O)C(=O)N1 (stereo not drawn)", "property.label": "inhibition at 10 µM", "assay.result": 76}
{"compound": "O=C1CCC(N2C(=O)c3ccc(C4(O)CCN(CC5CCOCC5)CC4)cc3C2=O)C(=O)N1 (stereo not drawn)", "property.label": "inhibition at 10 µM", "assay.result": 55}
{"compound": "O=C1CCC(N2C(=O)c3ccc(C4(O)CCN(Cc5ccc(OC(F)F)cc5)CC4)cc3C2=O)C(=O)N1 (stereo not drawn)", "property.label": "inhibition at 10 µM", "assay.result": 74}
{"compound": "O=C1CCC(N2C(=O)c3ccc(C4(O)CCN(Cc5ccc6ccccc6c5)CC4)cc3C2=O)C(=O)N1 (stereo not drawn)", "property.label": "inhibition at 10 µM", "assay.result": 80}
{"compound": "COc1cccc(CN2CCC(O)(c3ccc4c(c3)C(=O)N(C3CCC(=O)NC3=O)C4=O)CC2)c1 (stereo not drawn)", "property.label": "inhibition at 10 µM", "assay.result": 77}
{"compound": "O=C1CCC(N2C(=O)c3ccc(C4CCN(Cc5ccccc5)CC4)cc3C2=O)C(=O)N1 (stereo not drawn)", "property.label": "inhibition at 10 µM", "assay.result": 45}
{"compound": "COc1ccc(Oc2cccc(CN3CCC(O)(c4ccc5c(c4)C(=O)N(C4CCC(=O)NC4=O)C5=O)CC3)c2)cc1 (stereo not drawn)", "property.label": "inhibition at 10 µM", "assay.result": 80}
{"compound": "O=C1CCC(N2C(=O)c3ccc(C4CCN(Cc5cccc(Nc6ccccn6)n5)CC4)cc3C2=O)C(=O)N1 (stereo not drawn)", "property.label": "inhibition at 10 µM", "assay.result": 45}
{"compound": "O=C1CCC(N2C(=O)c3ccc(C4(O)CCN(Cc5ccc(F)c(Oc6ccccc6)c5)CC4)cc3C2=O)C(=O)N1 (stereo not drawn)", "property.label": "inhibition at 10 µM", "assay.result": 73}
{"compound": "O=C1CCC(N2C(=O)c3ccc(C4(O)CCN(Cc5cccc(Oc6ccc(Cl)cc6)c5)CC4)cc3C2=O)C(=O)N1 (stereo not drawn)", "property.label": "inhibition at 10 µM", "assay.result": 79}
{"compound": "O=C1CCC(N2C(=O)c3ccc(C4(O)CCN(Cc5ccc(C(F)(F)F)cc5)CC4)cc3C2=O)C(=O)N1 (stereo not drawn)", "property.label": "inhibition at 10 µM", "assay.result": 69}
{"compound": "O=C1CCC(N2C(=O)c3ccc(C4(O)CCN(Cc5cccc6ccccc56)CC4)cc3C2=O)C(=O)N1 (stereo not drawn)", "property.label": "inhibition at 10 µM", "assay.result": 72}
{"compound": "O=C1CCC(N2C(=O)c3ccc(C4(O)CCN(Cc5ccc6cc(-c7ccccc7)nn6c5)CC4)cc3C2=O)C(=O)N1 (stereo not drawn)", "property.label": "inhibition at 10 µM", "assay.result": 80}

----------
- tested.on: IKZF2 (Helios) (Homo sapiens, UniProt Q96SW2+Q9UKS7)
- Construct: endogenous in cells; host or cells: MOLT4 (CRISPR/Cas knock-in of HiBiT at the endogenous IKZF2 locus)
- method.description: HiBiT-IKZF2 degradation assay in MOLT4 cells
- Assay type: cell-based
- setup.conditions: concentration at which 50% of HiBiT-Helios degradation was achieved, read-out: Cellular Degradation - IKZF2 DC50
- Source text: The HiBiT protein tagging system was applied to MOLT4 cells via a CRISPR/Cas-mediated insertion of the HiBiT peptide tag (Promega™) to the N-terminus of the IKZF2 gene locus (Neon™ Transfection System). […] At the indicated timepoints, the Nano-Glo® HiBiT Lytic Detection system (Promega™) was utilized for detecting bioluminescence of the HiBiT tag in treated cells: the abundance of the tag is proportionate to the level of luminescence. […]
property.label: DC50 (nM)

{"compound": "O=C1CCC(N2C(=O)c3ccc(C4(O)CCN(Cc5ccccc5C(F)(F)F)CC4)cc3C2=O)C(=O)N1 (stereo not shown)", "property.label": "DC50", "assay.result": 20}
{"compound": "O=C1CCC(N2C(=O)c3ccc(C4(O)CCN(Cc5cccc(Oc6ccc(Cl)cc6)c5)CC4)cc3C2=O)C(=O)N1 (stereo not shown)", "property.label": "DC50", "assay.result": 8.8}
{"compound": "O=C1CCC(N2C(=O)c3ccc(C4(O)CCN(Cc5cccc(Oc6ccccc6)c5)CC4)cc3C2=O)C(=O)N1 (stereo not shown)", "property.label": "DC50", "assay.result": 4.2}
{"compound": "O=C1CCC(N2C(=O)c3ccc(C4(O)CCN(CC5CCOCC5)CC4)cc3C2=O)C(=O)N1 (stereo not shown)", "property.label": "DC50", "assay.result": 55}
{"compound": "O=C1CCC(N2C(=O)c3ccc(C4(O)CCN(Cc5ccc(C(F)(F)F)cc5)CC4)cc3C2=O)C(=O)N1 (stereo not shown)", "property.label": "DC50", "assay.result": 56}
{"compound": "O=C1CCC(N2C(=O)c3ccc(C4(O)CCN(Cc5ccccc5)CC4)cc3C2=O)C(=O)N1 (stereo not shown)", "property.label": "DC50", "assay.result": 22}
{"compound": "COc1ccc(Oc2cccc(CN3CCC(O)(c4ccc5c(c4)C(=O)N(C4CCC(=O)NC4=O)C5=O)CC3)c2)cc1 (stereo not shown)", "property.label": "DC50", "assay.result": 5.1}
